Data provenance: ChEMBL document CHEMBL1143487

system: Plasmodium falciparum; test: Minimum inhibitory concentration against Plasmodium falciparum; assay type: functional
MIC under 1 µg/mL gets Fulfilled, anything at or over 1 µg/mL gets Not fulfilled.

Check if MIC falls below 1 µg/mL for "Cc1ccc(-c2cc(-c3ccc(O)cc3)nc(N3CCN(Cc4ccccc4)CC3)n2)cc1" .
Not fulfilled

Check if MIC falls below 1 µg/mL for "Cc1ccc(-c2cc(-c3ccc(O)cc3)nc(N)n2)cc1" .
Not fulfilled

Check if MIC falls below 1 µg/mL for "COc1ccc(-c2cc(-c3ccc(O)cc3)nc(N)n2)cc1" .
Not fulfilled

Check if MIC falls below 1 µg/mL for "COc1ccc(-c2cc(-c3ccc(O)cc3)nc(N3CCCCC3)n2)cc1" .
Fulfilled

Check if MIC falls below 1 µg/mL for "Cc1ccc(-c2cc(-c3ccc(O)cc3)nc(N3CCN(c4ccccc4)CC3)n2)cc1" .
Not fulfilled

Check if MIC falls below 1 µg/mL for "CN1CCN(c2nc(-c3ccccc3)cc(-c3ccc(O)cc3)n2)CC1" .
Fulfilled

Check if MIC falls below 1 µg/mL for "COc1ccc(-c2cc(-c3ccc(O)cc3)nc(N)n2)cc1OC" .
Not fulfilled
